Taken from PubChem BioAssay (NCATS).

test: NS1 protein of Zika virus - qHTS assay to identify small molecule inhibitors in human HEK 293 cells (AID 1347053); settings: HEK293 ZIKV MR766 infection, NS1 TR-FRET, 24 h; series mostly up to 46.1 µM; note: nearly all actives have a fitted effect of over 55% in size
Results filed as inconclusive are left out. Active and inactive are the calls of the source. Calls come from the whole dose curve; as a rule, active = well fitted inhibition curve with a large enough effect; inconclusive = small, poorly fitted or top-dose-only effect; inactive = no such curve, though single readings can be large or run the other way.
Pick from T = active, F = inactive when you respond.

# example entries with known answers
compound: O=C(CCc1ccc(O)cc1)c1c(O)cc(O)cc1O[C@@H]1O[C@H](CO)[C@H](O)[C@H](O)[C@H]1O
group: F

compound: CCC(CC)[C@H](NC(C)=O)[C@@H]1[C@H](O)[C@@H](C(=O)O)C[C@@H]1N=C(N)N
group: F

compound: CC(=Cc1ccccc1)C=C1SC(=S)N(CC(=O)O)C1=O
group: F

How was CCCCCCCCCCCC1=C(O)C(=O)C=C(O)C1=O classified in this test? F

Call for entry Cc1ccc(C(C)(O)c2nc3ccccc3s2)c(C)c1 (centres undefined) : F

Hey, what did the test say about COc1ccc2c(Oc3ccc(NC(=O)c4c(C)n(CC(C)(C)O)n(-c5ccccc5)c4=O)nc3)ccnc2c1 ? F

State the result this test recorded for CC(=O)N(C)C1(c2ccccc2)CCN(CCC[C@]2(c3ccc(Cl)c(Cl)c3)CCCN(C(=O)c3ccccc3)C2)CC1 . T

GET /call?item= CC[C@H]1OC(=O)[C@H](C)[C@@H](O[C@H]2C[C@@](C)(OC)[C@@H](O)[C@H](C)O2)[C@H](C)[C@@H](O[C@@H]2O[C@H](C)C[C@H](N(C)C)[C@@H]2O)[C@](C)(O)C[C@@H](C)CN(C)[C@H](C)[C@@H](O)[C@]1(C)O returns the recorded outcome of this test. F

// outcome(item) with item = CC1(C)CCC[C@@]2(C)[C@@H]1CC[C@@]1(C)OC(=O)C[C@H]21 F

Any idea what this test logged for O=c1c(-c2ccc(O)cc2)coc2cc(OC3O[C@H](CO)[C@H](O)[C@H](O)[C@H]3O)cc(O)c12 (some centres undefined) ? F
